test system: NCI-H1417 complex spheroids, growth % test/control; experiment: Anticancer human tumor NCI-H1417 cell line growth inhibition [Asc]; conditions: second compound 0.316 µM; first compound 0.0316 µM; active means viability on the fitted dose curve at most 10% of control; inactive means the rest;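 further: spheroids exposed to compounds for 7 days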
Classes used: Y (active), N (inactive)

# Compound, Study target, Answer label
records = [
    ("NC1CCC(NC2CC2c2ccccc2)CC1 (centres undefined) + CNC(C)C(=O)NC1CN(S(=O)(=O)c2cccc(S(=O)(=O)N3CCC4CCC(C(=O)NC(c5ccccc5)c5ccccc5)N4C(=O)C(NC(=O)C(C)NC)C3)c2)CCC2CCC(C(=O)NC(c3ccccc3)c3ccccc3)N2C1=O", "NCI-H1417 complex spheroids, growth % test/control", "N"),
    ("Cn1ncnc1[C@H]1c2n[nH]c(=O)c3cc(F)cc(c23)N[C@@H]1c1ccc(F)cc1 + Cc1c(S(C)(=O)=O)c(-c2cc(F)cc(N3CCN(c4ccc(NS(=O)(=O)c5ccc(NC(CCN6CCC(C(=O)OCCCP(=O)(O)O)CC6)CSc6ccccc6)c(S(=O)(=O)C(F)(F)F)c5)cc4)CC3)c2)c(-c2ccc(Cl)cc2)n1C(C)C", "NCI-H1417 complex spheroids, growth % test/control", "Y"),
    ("NC1CCC(NC2CC2c2ccccc2)CC1 (centres undefined) + Cc1c(S(C)(=O)=O)c(-c2cc(F)cc(N3CCN(c4ccc(NS(=O)(=O)c5ccc(NC(CCN6CCC(C(=O)OCCCP(=O)(O)O)CC6)CSc6ccccc6)c(S(=O)(=O)C(F)(F)F)c5)cc4)CC3)c2)c(-c2ccc(Cl)cc2)n1C(C)C", "NCI-H1417 complex spheroids, growth % test/control", "N"),
    ("Cn1ncnc1[C@H]1c2n[nH]c(=O)c3cc(F)cc(c23)N[C@@H]1c1ccc(F)cc1 + CNC(C)C(=O)NC1CN(S(=O)(=O)c2cccc(S(=O)(=O)N3CCC4CCC(C(=O)NC(c5ccccc5)c5ccccc5)N4C(=O)C(NC(=O)C(C)NC)C3)c2)CCC2CCC(C(=O)NC(c3ccccc3)c3ccccc3)N2C1=O", "NCI-H1417 complex spheroids, growth % test/control", "N"),
]

Value source: PubChem BioAssay AID1963440
